assay.system: Recombinant full-length human IDO1 (Homo sapiens, UniProt P14902)
Construct: Recombinant full-length human IDO1 with a N-terminal hexahistidine tag; hexahistidine (His6) (N); made in house; host or cells: E. coli
Sequence (P14902 whole entry): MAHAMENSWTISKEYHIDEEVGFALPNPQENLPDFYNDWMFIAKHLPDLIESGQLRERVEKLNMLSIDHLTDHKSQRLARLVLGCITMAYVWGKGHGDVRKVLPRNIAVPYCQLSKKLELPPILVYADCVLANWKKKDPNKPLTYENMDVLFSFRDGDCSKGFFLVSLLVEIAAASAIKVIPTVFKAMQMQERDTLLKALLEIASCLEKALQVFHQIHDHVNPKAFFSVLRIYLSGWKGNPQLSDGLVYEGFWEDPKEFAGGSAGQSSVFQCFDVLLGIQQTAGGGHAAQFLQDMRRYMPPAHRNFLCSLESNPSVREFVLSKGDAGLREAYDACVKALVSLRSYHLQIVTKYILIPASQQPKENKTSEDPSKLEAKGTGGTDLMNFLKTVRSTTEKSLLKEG
assay.method.text: IDO1 enzymatic assay (NFK quantified by LCMS)
Format: biochemical
setup.conditions: 2 nM enzyme, 5 μM L-tryptophan, pH6.5, 30 minutes pre-incubation at RT; mean values when measured multiple times; read-out: hIDO activity (IC50 in nM)
readout: IC50 (nM)

Solved cases (2 shown):
| compound | assay.system | readout.units | IC50 |
| --- | --- | --- | --- |
| N#Cc1cccc(-n2cc([C@H](O)c3c(C4CC4)sc4cncn34)nn2)c1 [Example 18a] | Recombinant full-length human IDO1 (Homo sapiens, UniProt P14902) | nM | 13.5 |
| OCCOCCOc1ccc(-n2cc(C(O)c3c(C4CC4)sc4cncn34)nn2)cc1 (racemic) | Recombinant full-length human IDO1 (Homo sapiens, UniProt P14902) | nM | 16.5 |

[A] N#Cc1cc(-n2cc(C(O)c3c(C4CC4)sc4cncn34)nn2)ccc1OC(F)(F)F (racemic)
[B] COC(=O)c1cc(-n2cc(C(O)c3c(C4CC4)sc4cncn34)nn2)cnc1OC (racemic)
Which value of IC50 is greater, the one for A or the one for B ? Bench note: the answer is the label of the chosen record. B

---

assay.system: Recombinant human TDO comprising amino acids 19-407 (Homo sapiens, UniProt P48775)
Construct: Recombinant human TDO comprising amino acids 19-407 with a N-terminal hexahistidine tag; hexahistidine (His6) (N); made in house; host or cells: E. coli
Sequence (P48775 19-406 limits assumed): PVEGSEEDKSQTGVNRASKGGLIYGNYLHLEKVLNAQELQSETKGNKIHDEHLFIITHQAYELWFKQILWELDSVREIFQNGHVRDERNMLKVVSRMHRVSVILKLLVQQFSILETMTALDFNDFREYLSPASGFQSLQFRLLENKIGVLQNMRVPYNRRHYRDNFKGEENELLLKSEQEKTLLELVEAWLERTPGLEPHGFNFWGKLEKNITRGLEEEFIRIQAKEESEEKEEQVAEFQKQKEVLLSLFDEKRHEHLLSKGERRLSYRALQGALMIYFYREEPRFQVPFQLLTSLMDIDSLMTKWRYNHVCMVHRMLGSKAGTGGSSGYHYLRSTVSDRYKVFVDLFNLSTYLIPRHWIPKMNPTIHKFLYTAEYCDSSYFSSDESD
assay.method.text: TDO2 enzymatic assay (NFK quantified by LCMS)
Assay type: biochemical
setup.conditions: 15 nM enzyme, 200 μM L-tryptophan, pH7, 30 minutes pre-incubation at RT; mean values when measured multiple times; read-out: hTDO activity (IC50 in nM)
readout: IC50 (nM)

| compound | value |
| --- | --- |
| CCc1sc2cncn2c1C(O)c1cn(-c2cncc3ccccc23)nn1 (racemic) [Example 52] | 5060 |
| CCc1sc2cncn2c1C(O)c1cn(-c2ccc(NC(C)=O)cc2)nn1 (racemic) [Example 110] | 4290 |

---

assay.system: Recombinant full-length human IDO1 (Homo sapiens, UniProt P14902)
Construct: Recombinant full-length human IDO1 with a N-terminal hexahistidine tag; hexahistidine (His6) (N); made in house; host or cells: E. coli
assay.method.text: IDO1 enzymatic assay (NFK quantified by LCMS)
Format: biochemical
setup.conditions: 2 nM enzyme, 5 μM L-tryptophan, pH6.5, 30 minutes pre-incubation at RT; mean values when measured multiple times; read-out: hIDO activity (IC50 in nM)
readout: IC50 (nM)

| compound | readout.units | IC50 |
| --- | --- | --- |
| OC(c1cn(-c2cccc3[nH]ccc23)nn1)c1c(C2CC2)sc2cncn12 (racemic) [Example 20] | nM | 21.3 |

[A] OC(c1cn(-c2ccc(OCC3CC3)cc2)nn1)c1c(C2CC2)sc2cncn12 (racemic) [Example 35]
[B] CCOc1ncc(-n2cc(C(O)c3c(C4CC4)sc4cncn34)nn2)cn1 (racemic) [Example 65]
Which value of IC50 is greater, the one for A or the one for B ? Bench note: the answer is the label of the chosen record. B
(B: 14.2 nM, A: 8.83 nM)
